Answer each item with its documented Relative Potency.
Target: HMG-CoA reductase (Rattus norvegicus, UniProt P51639)
Sequence (P51639 1-887): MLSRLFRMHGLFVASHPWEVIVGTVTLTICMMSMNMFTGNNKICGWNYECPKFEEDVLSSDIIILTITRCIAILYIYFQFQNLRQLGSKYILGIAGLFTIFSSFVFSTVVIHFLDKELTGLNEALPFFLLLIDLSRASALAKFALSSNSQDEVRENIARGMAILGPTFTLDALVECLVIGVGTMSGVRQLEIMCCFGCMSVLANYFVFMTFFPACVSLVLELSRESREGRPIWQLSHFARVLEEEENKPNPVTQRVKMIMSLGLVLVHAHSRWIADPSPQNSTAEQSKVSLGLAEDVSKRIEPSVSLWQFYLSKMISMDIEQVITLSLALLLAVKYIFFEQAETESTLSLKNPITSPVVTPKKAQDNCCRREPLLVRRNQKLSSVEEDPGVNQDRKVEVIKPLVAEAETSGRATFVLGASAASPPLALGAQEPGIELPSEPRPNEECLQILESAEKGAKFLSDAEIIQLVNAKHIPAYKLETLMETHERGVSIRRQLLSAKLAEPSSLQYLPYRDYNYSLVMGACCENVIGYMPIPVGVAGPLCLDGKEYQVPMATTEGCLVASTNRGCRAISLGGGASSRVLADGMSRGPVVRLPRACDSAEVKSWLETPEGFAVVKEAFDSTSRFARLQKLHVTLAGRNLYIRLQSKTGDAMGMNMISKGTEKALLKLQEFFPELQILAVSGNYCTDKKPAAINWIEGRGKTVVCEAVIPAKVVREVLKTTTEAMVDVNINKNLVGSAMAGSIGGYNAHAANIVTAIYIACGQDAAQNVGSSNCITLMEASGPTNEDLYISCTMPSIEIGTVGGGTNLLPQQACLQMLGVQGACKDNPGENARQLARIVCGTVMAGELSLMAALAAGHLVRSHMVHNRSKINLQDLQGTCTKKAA
Assay: intrinsic HMG-CoA reductase inhibition, in vitro protocol of J. Med. Chem. 28, 347-358 (1985)
Format: biochemical
Conditions: IC50 of test compound compared with that of compactin (mevastatin) determined simultaneously; compactin assigned 100
Description: The intrinsic HMG-CoA reductase inhibition activity of the claimed compounds is measured in the in vitro protocol published in J. Med. Chem. 28, p. 347-358 (1985). For estimation of relative inhibitory potencies, mevastatin (compactin) was assigned a value of 100 and the IC50 value of the test compound was compared with that of compactin determined simultaneously in the published in vitro protocol.
Hey, just send me the number, nothing else.

Inquiry: For the compound shown here, CCC(C)(C)C(=O)O[C@H]1C[C@H](CNC(=O)NCc2ccccc2)C=C2C=C[C@H](C)[C@H](CC[C@@H]3C[C@@H](O)CC(=O)O3)[C@H]21 , give the reported Relative Potency.
Reply text: 500

Inquiry: For the compound shown here, CCC(C)(C)C(=O)O[C@H]1C[C@H](CNC(=O)Nc2ccccc2)C=C2C=C[C@H](C)[C@H](CC[C@@H]3C[C@@H](O)CC(=O)O3)[C@H]21 , give the reported Relative Potency.
Reply text: 294

Inquiry: For the compound shown here, CCC(C)(C)C(=O)O[C@H]1C[C@H](CNCc2ccccc2)C=C2C=C[C@H](C)[C@H](CC[C@@H]3C[C@@H](O)CC(=O)O3)[C@H]21 , give the reported Relative Potency.
Reply text: 167

Inquiry: For the compound shown here, CCC(C)(C)C(=O)O[C@H]1C[C@H](CNC(=O)c2ccccc2)C=C2C=C[C@H](C)[C@H](CC[C@@H]3C[C@@H](O)CC(=O)O3)[C@H]21 , give the reported Relative Potency.
Reply text: 300

Inquiry: For the compound shown here, CCC(C)(C)C(=O)O[C@H]1C[C@H](CN)C=C2C=C[C@H](C)[C@H](CC[C@@H](O)C[C@@H](O)CC(=O)O)[C@H]21 , give the reported Relative Potency.
Reply text: 125
